This section presents sequences with their documented protease stability score values.
- Assay Notes: protease stability score; higher = more stable; yeast display proteolysis, trypsin and chymotrypsin;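 further: log10 excess protease needed over predicted unfolded state with 0 meaning unfolded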

>>> assay_value("DEKKALEIAEKVARYVAEGNSDKAKELGKEGVEAKVGDTTVHGPDQLKEYVKKVKDQGNRYEYKETHKEGNTVQFKTEVEKGNAKVEFTAEYQVEGDKLVRAEVRFNKEQQKKFQKS")
-0.214
>>> assay_value("DTHAVEVWRRVLRAKETGDEKTLEKNFDPNARFQVGDKTLHGMEQQVTENKRERDDLRVHVEIKEVKDQGDKAFVDMVMTAEVNGQPYRIRVEVVAVVRNGKIKELVINMDPRQQEQLDS")
0.28
>>> assay_value("DEEELKDVLKKFSKNDEDFFKDLADKDARAVYGDKEVHGREEMSDLWRILKEQVDHMHINHMKLQGDRIVVDFTMTINGQEYVNVQELKFQNGKLQEVVVKVTDEEQMKRLLKIEK")
0.298
>>> assay_value("DEEKDEKIRKWQTNVKHGNEDEIRKNADKDAHVHVGDKQYHGHHRIRKLMTNERRKMRVDQKIETVSANNGRATVIVSATFDVNGQPLTDRENVVLIMHNGKIQEVRVDMDPDLHRQLQS")
-0.51
>>> assay_value("DDHNVRLAKKFREAYETGDEETVKSMADPNAHYHVGDKRITGRERQVRKMTRERRDMRVQVESIRYSNRNGRVDVKIVEVRNDNGHPKRMRIVLHVNFQNGKAKEFQIEDQE")
0.226

The measured protease stability score associated with DEDQRRKLEDLLRAYRTGDEKRIVEMADPNVEMHVGDHEVHGMEKIARKQVRTNQEARVDYEDWRLDFQGDKVNFEFDLRRDHNGEPETHKVDMTIVFKNGRIKSQSVRNTK reads -0.135

Entry under test: DEEDMKRVQDLIKAFQEGDPDKVVEQIDPNARIEVGDQHVSGRQHIRETIHNRVEEAEIHYESITLRVRGNTVEVRMVFVENKNGRPKRVHVKIEVQMHNGKVKEIREQEVS . Its protease stability score was 0.969

Source: the NTF2 design screens of Basanta et al. (2020)
